# test target: CyclinE1/CDK2 (Homo sapiens, UniProt P24864)
# Construct: purchased Eurofins, discovery 14-475
# protocol details: Fluorescence Polarization (FP) competitive binding assay, Cyclin E1/Cdk2;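 note: readings taken after two-hour equilibration at room temperature in HEPES buffer with NaCl, DTT, NP-40 and BSA, IC50 fitted from eight-concentration serial dilution series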
# settings: 10 nM Cyclin E1/Cdk2, 2 nM FAM probe; average of 2-3 independent experiments; read-out: Cyclin E FP IC50
*1 amine or outer side, *2 acyl side, *3 side chain or, on linkers, in order; H or OH if unused. Where a SMILES comes first, the peptide text is derived from it. Bridges are numbered along the chain shown (N, C = ends). [ ]: non-standard residue; d: D form. The star is where a group is joined. NMePhe(2-(4-MorPh),5-Cl) = CN[C@@H](Cc1cc(Cl)ccc1-c1ccc(N2CCOCC2)cc1)C(=O)O; X121 = C[C@@H]1CN(c2ccc(-c3ccc(Cl)cc3C[C@@H](C(=O)[*:2])N(C)[*:1])cc2)CCO1; X75 = CC(C)C(=O)N1C2C=C(c3ccc(Cl)cc3C[C@@H](C(=O)[*:2])N(C)[*:1])CC1COC2; X100 = CC(=O)NC1CC=C(c2ccc(Cl)cc2C[C@@H](C(=O)[*:2])N(C)[*:1])CC1; NMePhe(5-Cl,2-O(2-Pym)) = CN[C@@H](Cc1cc(Cl)ccc1Oc1ncccn1)C(=O)O; X187 = CC(=O)N1CC=C(c2ccc(Cl)cc2C[C@@H](C(=O)[*:2])N(C)[*:1])C1; X192 = COc1cccc(-c2ccc(Cl)cc2C[C@@H](C(=O)[*:2])N(C)[*:1])c1; NMehhhLys(Me) = CN([C@@H](CCCCCCCN(C)[*:3])C(=O)[*:2])[*:1]; NMe(hhhLys) = CN([C@@H](CCCCCCCN[*:3])C(=O)[*:2])[*:1]; NMe3Pal(2-OMe,5-Cl) = CN[C@@H](Cc1cc(Cl)cnc1OC)C(=O)O; Cyclobutanecarbonyl(1-CF3) = O=C(C1(C(F)(F)F)CCC1)*; cBuCO(3,3-F2-1-CF3) = O=C(C1(C(F)(F)F)CC(F)(F)C1)*; Pro(trans-4-F) = O=C(O)[C@@H]1C[C@@H](F)CN1; Gly(cPr) = N[C@H](C(=O)O)C1CC1; X65 = CC1(C(=O)*)CC(F)(F)C1
Item-by-item account of IC50

molecule	IC50
COc1ncc(Cl)cc1C[C@H]1C(=O)N(C)CCCCCCC[C@H](N(C)C(=O)[C@@H](NC(=O)[C@@H]2C[C@@H](F)CN2C(=O)C2(C(F)(F)F)CCC2)C2CC2)C(=O)N[C@@H](CC(C)C)C(=O)N1C [Example 224] ({Cyclobutanecarbonyl(1-CF3)}-[Pro(trans-4-F)][Gly(cPr)][NMehhhLys(Me)]L[NMe3Pal(2-OMe,5-Cl)]; lactam 3-C)	100 nM
CC(=O)N1CC=C(c2ccc(F)cc2C[C@H]2C(=O)N(C)CCCCC=CC[C@H](N(C)C(=O)[C@@H](NC(=O)[C@@H]3C[C@@H](F)CN3C(=O)C3(C(F)(F)F)CCC3)C3CC3)C(=O)N[C@@H](CC(C)C)C(=O)N2C)CC1	440 nM
CC(C)C[C@@H]1NC(=O)[C@@H](NC(=O)[C@@H](NC(=O)[C@@H]2C[C@@H](F)CN2C(=O)C2(C(F)(F)F)CC(F)(F)C2)C2CC2)CC=CCCCCNC(=O)[C@H](Cc2cc(Cl)ccc2Cl)N(C)C1=O	100 nM
COc1cccc(-c2ccc(Cl)cc2C[C@H]2C(=O)N(C)CCCCCCC[C@H](N(C)C(=O)[C@@H](NC(=O)[C@@H]3C[C@@H](F)CN3C(=O)C3(C(F)(F)F)CC(F)(F)C3)C3CC3)C(=O)N[C@@H](CC(C)C)C(=O)N2C)c1 [Example 197] ({cBuCO(3,3-F2-1-CF3)}-[Pro(trans-4-F)][Gly(cPr)][NMehhhLys(Me)]L[X192]; lactam 3-C)	310 nM
CC(C)C[C@@H]1NC(=O)[C@@H](N(C)C(=O)[C@@H](NC(=O)[C@@H]2C[C@@H](F)CN2C(=O)C2(C(F)(F)F)CCC2)C2CC2)CC=CCCCCN(C)C(=O)[C@H](Cc2cc(Cl)ccc2-c2cnn(C)c2)N(C)C1=O	210 nM
CC(=O)N1CC=C(c2ccc(Cl)cc2C[C@H]2C(=O)N(C)CCCCCCC[C@H](N(C)C(=O)[C@@H](NC(=O)[C@@H]3C[C@@H](F)CN3C(=O)C3(C(F)(F)F)CC(F)(F)C3)C3CC3)C(=O)N[C@@H](CC(C)C)C(=O)N2C)C1 [Example 308] ({cBuCO(3,3-F2-1-CF3)}-[Pro(trans-4-F)][Gly(cPr)][NMehhhLys(Me)]L[X187]; lactam 3-C)	840 nM
CC(C)C[C@@H]1NC(=O)[C@@H](N(C)C(=O)[C@@H](NC(=O)[C@@H]2C[C@@H](F)CN2C(=O)C2(C(F)(F)F)CC(F)(F)C2)C2CC2)CCCCCCCNC(=O)[C@H](Cc2cc(Cl)ccc2C2=CC3COCC(C2)N3C(=O)C(C)C)N(C)C1=O (stereo partly drawn) [Example 194] ({cBuCO(3,3-F2-1-CF3)}-[Pro(trans-4-F)][Gly(cPr)][NMe(hhhLys)]L[X75]; lactam 3-C)	540 nM
CC(C)C[C@@H]1NC(=O)[C@@H](N(C)C(=O)[C@@H](NC(=O)[C@@H]2C[C@@H](F)CN2C(=O)C2(C(F)(F)F)CC(F)(F)C2)C2CC2)CCCCCCCN(C)C(=O)[C@H](Cc2cc(Cl)ccc2-c2ccc(N3CCO[C@H](C)C3)cc2)N(C)C1=O [Example 414] ({cBuCO(3,3-F2-1-CF3)}-[Pro(trans-4-F)][Gly(cPr)][NMehhhLys(Me)]L[X121]; lactam 3-C)	940 nM
CC(C)C[C@@H]1NC(=O)[C@@H](N(C)C(=O)[C@@H](NC(=O)[C@@H]2C[C@@H](F)CN2C(=O)C2(C(F)(F)F)CCC2)C2CC2)CCCCCCCN(C)C(=O)[C@H](Cc2cc(Cl)ccc2Oc2ncccn2)N(C)C1=O [Example 159] ({Cyclobutanecarbonyl(1-CF3)}-[Pro(trans-4-F)][Gly(cPr)][NMehhhLys(Me)]L[NMePhe(5-Cl,2-O(2-Pym))]; lactam 3-C)	200 nM
CC(=O)NC1CC=C(c2ccc(Cl)cc2C[C@H]2C(=O)N(C)CCCCCCC[C@H](N(C)C(=O)[C@@H](NC(=O)[C@@H]3C[C@@H](F)CN3C(=O)C3(C(F)(F)F)CC(F)(F)C3)C3CC3)C(=O)N[C@@H](CC(C)C)C(=O)N2C)CC1 (stereo partly drawn) [Example 60] ({cBuCO(3,3-F2-1-CF3)}-[Pro(trans-4-F)][Gly(cPr)][NMehhhLys(Me)]L[X100]; lactam 3-C)	740 nM
CC(C)C[C@@H]1NC(=O)[C@@H](N(C)C(=O)[C@@H](NC(=O)[C@@H]2C[C@@H](F)CN2C(=O)C2(C(F)(F)F)CC(F)(F)C2)C2CC2)CC=CCCCCN(C)C(=O)[C@H](Cc2cc(Cl)ccc2-c2cnn(C3CC3)c2)N(C)C1=O	640 nM
CC(C)C[C@@H]1NC(=O)[C@@H](N(C)C(=O)[C@@H](NC(=O)[C@@H]2C[C@@H](F)CN2C(=O)C2(C)CC(F)(F)C2)C2CC2)CCCCCCCN(C)C(=O)[C@H](Cc2cc(Cl)ccc2-c2ccc(N3CCOCC3)cc2)N(C)C1=O [Example 365] (X65-[Pro(trans-4-F)][Gly(cPr)][NMehhhLys(Me)]L[NMePhe(2-(4-MorPh),5-Cl)]; lactam 3-C)	1170 nM
CC(C)C[C@@H]1NC(=O)[C@@H](N(C)C(=O)[C@@H](NC(=O)[C@@H]2C[C@@H](F)CN2C(=O)C2(C(F)(F)F)CC(F)(F)C2)C2CC2)CC=CCCCCN(C)C(=O)[C@H](Cc2cc(Cl)ccc2-c2cnn(C)c2)N(C)C1=O	690 nM
